test system: IL6 production in RAW 264.7 macrophage cell line; assay: Mouse IL6 quantification assay (LPS-stimulated macrophages, ELISA); format: cell-based; settings: RAW264.7, RAW 264.7 murine leukemia virus transformed macrophage cell lines, LPS stimulation, read-out: IL-6 % Inhibition at 30 μM
attribute measured: inhibition at 30 µM

compound="O=C(c1csc2c(O)nc(-c3ccccn3)nc12)N1CCNC(c2ccc(F)cc2)C1 (stereo not drawn) [drawing 2217]" result="1 to 25%"
compound="O=C(Nc1nc(-c2ccccn2)cs1)c1ccccn1 [drawing 2014]" result="51 to 75%"
compound="CC(OCC(F)(F)F)C(=O)Nc1nnc(-c2ccccn2)[nH]1 (stereo not drawn) [drawing 1948]" result=0%
compound="CS(=O)(=O)N1CCCc2cc(C(=O)N3CCCc4c(O)nc(-c5ccccn5)nc43)ccc21 [drawing 2077]" result="76 to 100%"
compound="CC(Oc1ccc(C#N)cc1)C(=O)Nc1nnc(-c2ccccn2)[nH]1 (stereo not drawn) [drawing 1977]" result="1 to 25%"
compound="N#Cc1ncn(-c2nc(-c3ccccn3)nc3sc(-c4ccccc4)cc23)n1 [drawing 2132]" result="76 to 100%"
compound="CC(C)(C)c1sc2c(O)nc(-c3ccccn3)nc2c1Br [drawing 2381]" result=0%
compound="Oc1nc(-c2ccccn2)nc2c1c(-c1ccccc1)nn2-c1ccccn1 [drawing 2366]" result="51 to 75%"
compound="O=C(c1cc2nc(-c3ccccn3)nc(O)c2s1)N1CCOC(c2ccccc2)C1 (stereo not drawn) [drawing 2235]" result="1 to 25%"
compound="Oc1nc(-c2ccccn2)nc2[nH]cnc12 [drawing 2122]" result="76 to 100%"
compound="Nc1nc(-c2ccccn2)nc2c(-c3ccccc3Cl)csc12 [drawing 2228]" result="76 to 100%"
compound="CCN(CC)CCC(C)Nc1nc(-c2ccccn2)nc2sccc12 (stereo not drawn) [drawing 2130]" result="1 to 25%"
compound="Cn1ccnc1-c1nc(O)c2scc(-c3ccc(F)cc3F)c2n1 [drawing 2443]" result="51 to 75%"
compound="COc1cnc(CNC(=O)c2sc3c(O)nc(-c4ccccn4)nc3c2C)[nH]c1=O [drawing 2351]" result="1 to 25%"
compound="O=C(NCCc1cccnc1)c1csc2c(O)nc(-c3ccccn3)nc12 [drawing 2115]" result="26 to 50%"

----------
Tested on: MAPK phosphorylation in PANC-1 pancreatic cancer cell line
Assay: MAPK cell-based phosphorylation assay (cell-direct ELISA, EGF stimulation)
Settings: Homo sapiens, at 30 μM
Experimental: Cell lines: Tumor-derived pancreatic cancer cell lines PANC-1 were purchased from ATCC and were maintained according to ATCC recommendation. Method: Cells were plated at 7500 cells/well density in 96-wells plate, starved over night, and the small molecules to be tested were added to the cells in the final concentration of 30 μM with 0.3% DMSO for 6 hours incubation at 37° C. […] Phosphorylation level of MAPK was determined by Cell-direct ELISA. […]
attribute measured: inhibition at 30 µM

molecule="CCCNC(=O)CN1CCN(c2nc(-c3ccccn3)nc3sc(-c4ccccc4)cc23)CC1 [drawing 1086]" attribute_measured="inhibition at 30 µM" result="76 to 100%"
molecule="c1ccc(-c2csc3nc(-c4ccccn4)nc(N4CCN(CC5CCCO5)CC4)c23)cc1 (stereo not shown) [drawing 1088]" attribute_measured="inhibition at 30 µM" result="1 to 25%"
molecule="CC(C)c1nc(CC(=O)Nc2nnc(-c3ccccn3)[nH]2)cs1 [drawing 1003]" attribute_measured="inhibition at 30 µM" result="1 to 25%"
molecule="O=C(CN1CCN(c2nc(-c3ccccn3)nc3sc(-c4ccccc4)cc23)CC1)N1CCCC1 [drawing 1091]" attribute_measured="inhibition at 30 µM" result="76 to 100%"

----------
Listed compounds paired with reported inhibition at 20 µM
molecular target: Rac-1 (Homo sapiens (Human), UniProt P63000); assay: Rac inhibition assay (labeled GTP); type: binding; details: read-out: Rac-1 % Inh.
attribute measured: inhibition at 20 µM

compound="Cc1sc2c(O)nc(-c3nccn3C)nc2c1-c1ccccc1Cl [drawing 3920]" result="51 to 75%"
compound="Cc1cnc(-c2ccccn2)nc1NC(=O)C(C)c1ccc(C#N)cc1 (stereo not drawn) [drawing 3686]" result="76 to 100%"
compound="O=C(c1csc2c(O)nc(-c3ccccn3)nc12)N1CCOC(c2cccc(F)c2)C1 (stereo not drawn) [drawing 3630]" result="25 to 50%"
compound="Oc1nc(-c2ccccn2)nc2c(-c3ccc(CN4CCOCC4)cc3)csc12 [drawing 3754]" result="51 to 75%"
compound="COc1ccc(CCC(=O)Nc2nc(-c3ccccn3)nc3sccc23)cn1 [drawing 3812]" result="76 to 100%"
compound="COCCNc1nc(-c2ccccn2)nc2c1c(-c1ccccc1)nn2-c1ccccn1 [drawing 3856]" result="76 to 100%"
compound="O=C(NCCc1ccncc1)c1csc2nc(-c3ccccn3)nc(N3CCOCC3)c12 [drawing 3668]" result="76 to 100%"
compound="CC(C(=O)Nc1ccnc(-c2ccccn2)n1)c1ccc(C#N)cc1 (stereo not drawn) [drawing 3683]" result="76 to 100%"
compound="COc1ccc(COC[C@H]2OC(c3csc4c(=O)[nH]c(-c5ccccn5)nc34)[C@H](O)[C@@H]2O)cc1 (stereo partly drawn)" result="51 to 75%"
compound="COCCCCN(C)C(=O)c1csc2nc(-c3ccccn3)nc(N3CCOCC3)c12 [drawing 3679]" result="76 to 100%"
compound="COc1ccc(C2CN(C(=O)c3csc4c(O)nc(-c5ccccn5)nc34)CCO2)cc1 (stereo not drawn) [drawing 3657]" result="25 to 50%"
compound="Oc1nc(-c2ccccn2)nc2c(-c3ccsc3)csc12 [drawing 3747]" result="76 to 100%"
compound="Oc1nc(-c2ccccn2)nc2c(-c3ccccc3)c(-c3ccncc3)sc12 [drawing 3866]" result="76 to 100%"
compound="COc1nc(-c2ccccn2)nc(Oc2cccc(C(F)(F)F)c2)c1O [drawing 3883]" result="76 to 100%"
compound="CC(C)Oc1ccc(-c2csc3c(O)nc(-c4nccn4C)nc23)cc1F [drawing 3927]" result="51 to 75%"
compound="COc1cnc(C2CCCN2)nc1O (stereo not drawn) [drawing 3788]" result=0%
compound=COc1ccnc(-c2nc(O)c3c(CN)csc3n2)c1 result="51 to 75%"
compound="Cn1cc(C2CN(C(=O)c3csc4c(O)nc(-c5ccccn5)nc34)CCN2)cn1 (stereo not drawn) [drawing 3666]" result="76 to 100%"

----------
Measured inhibition at 30 µM of individual entries
test system: MIA-PACA2 pancreatic cancer cell lines; assay: Cell proliferation assay (CellTiter 96 AQueous One); type: cell-based; conditions: Homo sapiens, MIA PaCa-2; at 30 μM, MIA-PACA2
attribute measured: inhibition at 30 µM

compound="CN(C)Cc1ccc(F)c(-c2csc3c(O)nc(-c4ccccn4)nc23)c1 [drawing 1777]" attribute_measured="inhibition at 30 µM" result="76 to 100%"
compound="COc1cccc(CC2CN(C(=O)c3csc4c(O)nc(-c5ccccn5)nc34)CCN2)c1 (centres unmarked) [drawing 1706]" attribute_measured="inhibition at 30 µM" result="1 to 25%"
compound="CCC(C)(C)c1ccc(OCCCC(=O)NC(C(=O)OC)C(C)C)c(C(C)(C)CC)c1 (centres unmarked) [drawing 1524]" attribute_measured="inhibition at 30 µM" result="76 to 100%"
compound="CC1(O)CCN(C(=O)c2csc3c(O)nc(-c4ccccn4)nc23)CC1 [drawing 1572]" attribute_measured="inhibition at 30 µM" result="76 to 100%"
compound="Cc1sc2nc(-c3ccccn3)nc(NCCCO)c2c1-c1ccccc1 [drawing 1516]" attribute_measured="inhibition at 30 µM" result="76 to 100%"
compound="O=S(=O)(Oc1cc(C(F)(F)F)cc(C(F)(F)F)c1)N1CCc2ccccc2C1 [drawing 1532]" attribute_measured="inhibition at 30 µM" result="25 to 50%"
compound="O=C(Cn1c(=O)cnc2ccccc21)Nc1nc(-c2ccccn2)cs1 [drawing 1476]" attribute_measured="inhibition at 30 µM" result="76 to 100%"
compound="Oc1nc(-c2ccccn2)nc2c(-c3ccc(OC4CCOC4)cc3)csc12 (centres unmarked) [drawing 1738]" attribute_measured="inhibition at 30 µM" result="76 to 100%"

----------
test system: TNFα production in RAW 264.7 macrophage cell line; test: Mouse TNF alpha quantification assay (LPS-stimulated macrophages, ELISA); type: cell-based; settings: RAW264.7, RAW 264.7 murine leukemia virus transformed macrophage cell lines, LPS stimulation, read-out: TNF-α % Inhibition at 30 μM
attribute measured: inhibition at 30 µM

compound="CS(=O)(=O)N1CCCc2cc(C(=O)Nc3nnc(-c4ccccn4)[nH]3)ccc21 [drawing 2002]" result="1 to 25%"
compound="COc1cc2c(cc1OC)CCN(C(=O)c1csc3c(O)nc(-c4ccccn4)nc13)CC2 [drawing 2117]" result="1 to 25%"
compound="Cn1ccnc1-c1nc(O)c2scc(-c3ccccc3Cl)c2n1 [drawing 2442]" result="1 to 25%"
compound="COc1cn(-c2ccccc2)nc1C(=O)Nc1nnc(-c2ccccn2)[nH]1 [drawing 2000]" result=0%
compound="Nc1nc(O)c2scc(Br)c2n1 [drawing 2089]" result="1 to 25%"
